ASSAY_REMARKS: chemical genetic growth profiling, strain panel (AID 1159580);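 further: tested at 20 µM; growth read once vehicle control cultures reached saturation at 30 °C; 1 = growth at the plate median or of vehicle wells; lower values mean less growth of the strain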
APPLIED_CONDITIONS: S. cerevisiae deletion strains, growth OD, locus YGL253W, strain hxk2, hits give low values
About 2,000 (36%) of roughly 5,500 compounds were called active. Another 18% or so got no clear call; they are omitted. The list shows a part of the results.
METRIC_NAME: normalized growth

* COc1ccc(-c2cc(=O)c3c(OC)c(OC)c(OC)c(OC)c3o2)cc1OC | 0.994
* N#Cc1c(Cl)cccc1Cl | 0.987
* C[C@]12CCC3C(CC[C@]4(O)C[C@@H](O)CC[C@]34C=O)[C@@]1(O)CCC2C1=CC(=O)OC1 (some centres undefined) | 0.985
* O=C(O)C1=CC(=C(c2ccc(O)c(C(=O)O)c2)c2ccc(O)c(C(=O)O)c2)C=CC1=O | 0.978
* CC[C@@]1(O)C(=O)OCc2c1cc1n(c2=O)Cc2cc3cc(O)ccc3nc2-1 | 1
* CC12CCC(=O)C=C1CCc1ccccc12 (centres undefined) | 0.98
* COC1C(O)C(O[C@H]2CC[C@]3(C=O)C4C(CC[C@]3(O)C2)[C@@]2(O)CC[C@H](C3=CC(=O)OC3)[C@@]2(C)C[C@H]4OC(C)=O)OC(C)C1OC(C)=O (some centres undefined) | 0.984
* C[C@@H]1O[C@@H](O[C@H]2CC[C@]3(C=O)C4CC[C@]5(C)[C@@H](C6=CC(=O)OC6)CC[C@]5(O)C4CC[C@]3(O)C2)[C@H](O)[C@H](O)[C@H]1O (some centres undefined) | 0.992
* Cc1ccc(-c2nc3ccc(C)cn3c2CC(=O)N(C)C)cc1 | 0.999

* * *

In this section, each of the compounds is paired with its reported normalized growth.
ASSAY_REMARKS: chemical genetic growth profiling, strain panel (AID 1159580);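 further: tested at 20 µM; growth read once vehicle control cultures reached saturation at 30 °C; 1 = growth at the plate median or of vehicle wells; lower values mean less growth of the strain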
APPLIED_CONDITIONS: S. cerevisiae deletion strains, growth OD, locus YKR091W, strain srl3, hits give low values
The whole screen tested about 5,500 compounds, of which about 2,000 (36%) were called active. Inconclusive results (about 18%) are left out. This is one part of the list.
METRIC_NAME: normalized growth

- C/C=C/CC(C)C(O)C1C(=O)NC(CC)C(=O)N(C)CC(=O)N(C)C(CC(C)C)C(=O)NC(C(C)C)C(=O)N(C)C(CC(C)C)C(=O)NC(C)C(=O)NC(C)C(=O)N(C)C(CC(C)C)C(=O)N(C)C(CC(C)C)C(=O)N(C)C(C(C)C)C(=O)N1C (stereo not given): 1.02
- CC1(C)C(O)CC(=O)C2(C)C1CC(O)C1(C)C2CCC2(C)C(c3ccoc3)OC(=O)C3OC321 (stereo not given): 1
- C[C@@H]1CCC2[C@](C)(CO)[C@@H](O)CC[C@]2(C)[C@@]12CC[C@@](CO)(CCO)O2 (stereo not given in full): 0.988
- C=CCSC[C@@H](N)C(=O)O: 1.01
- COC(=O)CC1C(C)(C)C(OC(C)=O)[C@@H]2[C@@H](OC(C)=O)[C@]34O[C@@]2(O)[C@]1(C)C3CC[C@]1(C)C4=CC(=O)O[C@H]1c1ccoc1 (stereo not given in full): 1.01
- C=CCSCC=C: 0.983
- CC1Cc2ccccc2N1NC(=O)c1ccc(Cl)c(S(N)(=O)=O)c1 (stereo not given): 0.997
- Cc1ccccc1N1C(=O)c2cc(S(N)(=O)=O)c(Cl)cc2NC1C (stereo not given): 0.984
- CCCCCC(O)C1C(=O)OC(C)C(O)/C=C/C=C/C=C/C=C/C=C(\C)C(O)CC(O)CC(O)CC(O)CC(O)CC(O)CC1O (stereo not given): 0.995
- O=c1c(-c2ccc(O)cc2)coc2c(C3O[C@H](CO)[C@@H](O)[C@H](O)[C@H]3O)c(O)ccc12 (stereo not given in full): 0.98
- O=C1CC2(CCCC2)CC(=O)N1CCCCN1CCN(c2ncccn2)CC1: 0.995
- C=CCSSSCC=C: 0.983
- COc1c(O)cc2c(c1O)[C@H]1O[C@H](CO)[C@@H](O)[C@H](O)[C@@H]1OC2=O: 1.02
- NC[C@H]1O[C@H](O[C@H]2[C@H](O)[C@@H](O[C@H]3O[C@H](CO)[C@@H](O)[C@H](N)[C@H]3O)[C@H](N)C[C@@H]2N)[C@H](N)[C@@H](O)[C@@H]1O: 0.983
- C/C=C(\C)C(=O)O[C@@H]1c2c(ccc3ccc(=O)oc23)OC(C)(C)[C@@H]1OC(C)=O: 0.996

* * *

ASSAY_REMARKS: chemical genetic growth profiling, strain panel (AID 1159580);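 further: tested at 20 µM; growth read once vehicle control cultures reached saturation at 30 °C; 1 = growth at the plate median or of vehicle wells; lower values mean less growth of the strain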
APPLIED_CONDITIONS: S. cerevisiae deletion strains, growth OD, locus YDL005C, strain med2, hits give low values
Out of some 5,500 compounds screened, about 2,000 (36%) were called active. Not shown: some 18% with an inconclusive outcome. Some of the results follow.
In this section, each of the compounds is paired with its reported normalized growth.
METRIC_NAME: normalized growth

- Cc1ncc(CO)c(CO)c1O: 1.03
- NCC(O)CC(=O)O (stereo unspecified): 0.969
- CC1(C)C(O)CC(=O)C2(C)C1CC(O)C1(C)C2CCC2(C)C(c3ccoc3)OC(=O)C3OC321 (stereo unspecified): 0.99
- CC(=O)OCC(=O)[C@@]1(O)CCC2C3C[C@H](C)C4=CC(=O)C=CC4(C)C3[C@@H](O)CC21C (stereo partly specified): 1.01
- CCCCC(=O)O[C@]1(C(=O)CO)[C@@H](C)CC2C3CCC4=CC(=O)C=C[C@]4(C)[C@@]3(F)C(O)C[C@@]21C (stereo partly specified): 0.972
- COC(=O)CC1C(C)(C)C(OC(C)=O)[C@@H]2[C@@H](OC(C)=O)[C@]34O[C@@]2(O)[C@]1(C)C3CC[C@]1(C)C4=CC(=O)O[C@H]1c1ccoc1 (stereo partly specified): 0.991
- Oc1ccc([C@H]2Oc3cc(O)cc(O)c3C[C@H]2O)cc1: 0.988
- CC1(C)S[C@@H]2[C@H](NC(=O)C(C(=O)O)c3ccccc3)C(=O)N2[C@H]1C(=O)O (stereo partly specified): 0.999
- COc1cccc2c1CCC1=CC(=O)CC[C@@]12C: 1.02
- CC(C)Nc1nc(Cl)nc(NC(C)C)n1: 0.998
- COc1cc2c(cc1OC)-c1c(oc3cc(O)cc(O)c3c1=O)CO2: 1.04
- COc1ccc(-c2cc(=O)c3c(O)cc(O)c(-c4cc(-c5cc(=O)c6c(O)cc(O)cc6o5)ccc4OC)c3o2)cc1: 1.01
- CCC(=O)OCC(=O)C1(OC(=O)CC)C(C)CC2C3C(Cl)CC4=CC(=O)C=CC4(C)C3C(O)CC21C (stereo unspecified): 1.02
- O=C(CCCN1CCC2(CC1)C(=O)NCN2c1ccccc1)c1ccc(F)cc1: 0.961
- N#Cc1c(Cl)cccc1Cl: 0.977
- CC12CCC(=O)C=C1CCc1ccccc12 (stereo unspecified): 0.985
- C=CCSSCC=C: 1.05
- Cc1ccccc1N1C(=O)c2cc(S(N)(=O)=O)c(Cl)cc2NC1C (stereo unspecified): 0.96
- CC1=CC(=O)C(C(C)C)=CC1=O: 0.974
- Nc1nc(/C(=C/CC(=O)O)C(=O)N[C@@H]2C(=O)N3C(C(=O)O)=CCS[C@H]23)cs1: 1.01
- CN(C)C(=O)C(CCN1CCC(O)(c2ccc(Cl)cc2)CC1)(c1ccccc1)c1ccccc1: 0.988
- COC(=O)N/N=C\c1c[n+]([O-])c2ccccc2[n+]1[O-]: 0.98
- O=S(=O)(O)O: 0.954
- C=CCSC[C@@H](N)C(=O)O: 0.988
- CSc1nc(NC(C)C)nc(NC(C)C)n1: 0.981
- C=CCSSSCC=C: 0.97
- CCC(=O)OCC(=O)C1(OC(=O)CC)C(C)CC2C3CCC4=CC(=O)C=CC4(C)C3(Cl)C(O)CC21C (stereo unspecified): 0.97
- CO[C@H]1[C@@H](O)[C@@H](C)O[C@H](O[C@H]2CCC3(C)C4CCC5(C)[C@@H](C6=CC(=O)OC6)CC[C@]5(O)[C@@H]4CC[C@]3(O)C2)[C@@H]1O (stereo partly specified): 1.03
- NCCCN: 0.977
- CC1CCCC(C)N1NC(=O)c1ccc(Cl)c(S(N)(=O)=O)c1 (stereo unspecified): 1.01
- CC(=O)N1CCN(c2ccc(OCC3CO[C@](Cn4ccnc4)(c4ccc(Cl)cc4Cl)O3)cc2)CC1 (stereo partly specified): 0.327
- CCc1ccc2c(O)c3c(cc2c1C(=O)OC)C(=O)c1c(O)ccc(O)c1C3=O: 0.997
- COP(N)(=O)SC (stereo unspecified): 1
- O=c1c(-c2ccc(O)cc2)coc2c(C3O[C@H](CO)[C@@H](O)[C@H](O)[C@H]3O)c(O)ccc12 (stereo partly specified): 0.978
- O=C(O)C1=CC(=C(c2ccc(O)c(C(=O)O)c2)c2ccc(O)c(C(=O)O)c2)C=CC1=O: 0.966
- COc1cc(O)c2c(=O)cc(-c3ccc(OC)c(-c4c(O)cc(O)c5c(=O)cc(-c6ccc(O)cc6)oc45)c3)oc2c1: 1.03

src = PubChem BioAssay AID1159580
